Exercise: state measured DOR Antagonist %Imax ± SEM for each of the compounds provided.
# system: human δ-opioid receptor (OPRD1) (Homo sapiens)
# Sequence (P41143 whole entry): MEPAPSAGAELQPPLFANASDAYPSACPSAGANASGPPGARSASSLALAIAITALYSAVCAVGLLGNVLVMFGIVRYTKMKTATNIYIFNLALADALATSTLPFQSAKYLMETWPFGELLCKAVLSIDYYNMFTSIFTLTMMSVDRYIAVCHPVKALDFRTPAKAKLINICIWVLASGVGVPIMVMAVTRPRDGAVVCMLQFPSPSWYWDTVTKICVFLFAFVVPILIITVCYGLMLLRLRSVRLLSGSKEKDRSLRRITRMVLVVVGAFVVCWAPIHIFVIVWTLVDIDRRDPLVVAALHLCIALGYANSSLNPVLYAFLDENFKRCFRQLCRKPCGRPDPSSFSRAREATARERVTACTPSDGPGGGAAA
# testName: Forskolin-induced cAMP accumulation assay, DOR antagonist mode
# setupConditions: versus EC50 of SNC80; normalized to naltrexone

// recorded DOR Antagonist %Imax ± SEM for CC/C=C\[C@H]1[C@@H]2CCC[C@@]1(c1cccc(O)c1)CCN2CCc1ccccc1 : 211.5 ± 24.7%

DOR Antagonist %Imax ± SEM in this record for C/C=C\[C@H]1[C@@H]2CCC[C@@]1(c1cccc(O)c1)CCN2CCc1ccccc1 : 142.5 ± 23.7%

DOR Antagonist %Imax ± SEM reported for this compound CC/C=C\[C@H]1[C@H]2CCC[C@]1(c1cccc(O)c1)CCN2CCc1ccccc1 : 166.6 ± 40.0%

// CC/C=C\[C@@H]1[C@H]2CCC[C@]1(c1cccc(O)c1)CCN2CCc1ccccc1 : DOR Antagonist %Imax ± SEM value = 182.3 ± 56.4%

Reported DOR Antagonist %Imax ± SEM of C/C=C\[C@H]1[C@H]2CCC[C@]1(c1cccc(O)c1)CCN2CCc1ccccc1 : 143.3 ± 11.9%

Form: compound = CC/C=C\[C@@H]1[C@@H]2CCC[C@@]1(c1cccc(O)c1)CCN2CCc1ccccc1 ; DOR Antagonist %Imax ± SEM = 226.1 ± 14.0%

The compound listed as C=C[C@H]1[C@@H]2CCC[C@@]1(c1cccc(O)c1)CCN2CCc1ccccc1 shows DOR Antagonist %Imax ± SEM equal to 201.4 ± 35.9%

Looking up C=C[C@H]1[C@H]2CCC[C@]1(c1cccc(O)c1)CCN2CCc1ccccc1 , I found its DOR Antagonist %Imax ± SEM recorded as 119.1 ± 15.5%

====

A set of compounds tested on human κ-opioid receptor (OPRK1) (Homo sapiens), with measured pIC50:
# pIC50: negative log10 of molar concentration; output just the value

Reported pIC50 for C/C=C\[C@H]1[C@H]2CCC[C@]1(c1cccc(O)c1)CCN2CCc1ccccc1 was 7.46

// C/C=C\[C@@H]1[C@@H]2CCC[C@@]1(c1cccc(O)c1)CCN2CCc1ccccc1 : pIC50 value = 6.79

Entry CC/C=C\[C@@H]1[C@H]2CCC[C@]1(c1cccc(O)c1)CCN2CCc1ccccc1 , pIC50 reported as 6.55

Input CC/C=C\[C@H]1[C@@H]2CCC[C@@]1(c1cccc(O)c1)CCN2CCc1ccccc1 . Output pIC50: 9.10

So, C=C[C@H]1[C@H]2CCC[C@]1(c1cccc(O)c1)CCN2CCc1ccccc1 ? Its pIC50 was 7.13

====

Record form. Attribute: IC50. Fill in for each entry.

Form field IC50 for item C/C=C\[C@@H]1[C@H]2CCC[C@]1(c1cccc(O)c1)CCN2CCc1ccccc1 on human κ-opioid receptor (OPRK1) (Homo sapiens, UniProt P41145): 0.238 µM

Log: human κ-opioid receptor (OPRK1) (Homo sapiens, UniProt P41145), compound C/C=C\[C@H]1[C@@H]2CCC[C@@]1(c1cccc(O)c1)CCN2CCc1ccccc1 , IC50 = 0.00402 µM

Noted IC50 for C=C[C@H]1[C@@H]2CCC[C@@]1(c1cccc(OC)c1)CCN2CCc1ccccc1 , tested on human κ-opioid receptor (OPRK1) (Homo sapiens, UniProt P41145): > 10 µM

The compound C=C[C@@H]1[C@@H]2CCC[C@@]1(c1cccc(O)c1)CCN2CCc1ccccc1 , when measured on human κ-opioid receptor (OPRK1) (Homo sapiens, UniProt P41145), yielded IC50 of 0.128 µM

Assay human κ-opioid receptor (OPRK1) (Homo sapiens, UniProt P41145), sample CC/C=C\[C@H]1[C@H]2CCC[C@]1(c1cccc(O)c1)CCN2CCc1ccccc1 , IC50 read: 0.328 µM

I looked up CC/C=C\[C@@H]1[C@@H]2CCC[C@@]1(c1cccc(O)c1)CCN2CCc1ccccc1 and its IC50 for human κ-opioid receptor (OPRK1) (Homo sapiens, UniProt P41145) was 0.0122 µM

// assay human κ-opioid receptor (OPRK1) (Homo sapiens, UniProt P41145), entry C=C[C@H]1[C@@H]2CCC[C@@]1(c1cccc(O)c1)CCN2CCc1ccccc1 , IC50 value = 0.0284 µM

Entry C=C[C@@H]1[C@H]2CCC[C@]1(c1cccc(O)c1)CCN2CCc1ccccc1 : IC50 on human κ-opioid receptor (OPRK1) (Homo sapiens, UniProt P41145) = 0.0198 µM
